target: Sho1, P40073; test: SPOT array; details: median of control spots 1148
Sequence (P40073 287-367): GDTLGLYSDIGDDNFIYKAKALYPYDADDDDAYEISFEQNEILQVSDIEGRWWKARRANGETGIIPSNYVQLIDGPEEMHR
Sorting guide: entries reporting SPOT intensity beneath 40 go in the YES pile, the rest go in the NO pile.

{"binder": "VPKEPAPAPPPEPDM", "assigned_class": "YES"}
{"binder": "VRVKKRPLIRPLNSS", "assigned_class": "NO"}
{"binder": "QRKSLRRPTLSKPAV", "assigned_class": "NO"}
{"binder": "TKIRRRPQQPLTDFT", "assigned_class": "NO"}
{"binder": "APKHAPPPVPNETDN", "assigned_class": "YES"}
{"binder": "IHTRRPSSTSQYLIR", "assigned_class": "YES"}
{"binder": "KTRLRPAFIQQLWSS", "assigned_class": "YES"}
{"binder": "LRWRHKFFLPAIAAI", "assigned_class": "YES"}
{"binder": "HVRRSILALPLGVLL", "assigned_class": "YES"}
{"binder": "VKPRQLFPIPLNKVD", "assigned_class": "YES"}

Reference source: paper PMC2756588
